method-notes: Antagonist activity at native AMPA receptor assessed as fDR-VRP reduction of neonatal rat spinal cord motorneurones
Assay type: functional
pIC50 values by entry
When answering, recall that pIC50 equals minus log10 of the concentration in mol/L, and write that number alone.

{"columns": ["molecule-smiles", "reading"],
 "data": [
  ["N[C@@H](Cn1ccc(=O)n(Cc2ccsc2C(=O)O)c1=O)C(=O)O", 4.51],
  ["Cc1cn(C[C@H](N)C(=O)O)c(=O)n(Cc2ccccc2C(=O)O)c1=O", 4.29],
  ["N[C@@H](Cn1cc(Br)c(=O)n(Cc2ccsc2C(=O)O)c1=O)C(=O)O", 4.37]
]}

Quick one: pIC50 for Cc1cn(C[C@H](N)C(=O)O)c(=O)n(Cc2c(C(=O)O)sc(Br)c2Br)c1=O ?
5.55

N[C@@H](Cn1ccc(=O)n(Cc2ccccc2C(=O)O)c1=O)C(=O)O , same question.
3.97

How about this compound: Cc1cn(C[C@H](N)C(=O)O)c(=O)n(Cc2cc(-c3ccccc3)sc2C(=O)O)c1=O
4.78

Do the same for N[C@@H](Cn1cc(F)c(=O)n(Cc2ccccc2C(=O)O)c1=O)C(=O)O please
4.73

Then this compound: Cc1cn(C[C@H](N)C(=O)O)c(=O)n(Cc2ccsc2C(=O)O)c1=O
4.79

// next record N[C@@H](Cn1cc(C(F)(F)F)c(=O)n(Cc2ccsc2C(=O)O)c1=O)C(=O)O
4.26

Try this compound too: N[C@@H](Cn1ccc(=O)n(Cc2ccoc2C(=O)O)c1=O)C(=O)O
4.93
